pKi overview
# MEASURED ON: Dihydrofolate reductase (Homo sapiens)
# Sequence (P00374 whole entry): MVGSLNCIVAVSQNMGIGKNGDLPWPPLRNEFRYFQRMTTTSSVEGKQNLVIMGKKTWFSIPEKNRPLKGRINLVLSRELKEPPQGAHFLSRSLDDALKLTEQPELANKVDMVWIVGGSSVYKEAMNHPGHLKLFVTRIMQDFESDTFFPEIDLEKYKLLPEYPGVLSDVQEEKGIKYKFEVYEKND
# EXPERIMENT: Inhibitory compound against Wild-type human DHFR.
The quantity pKi is defined as the negative base-10 logarithm of the molar concentration.

Record excerpt, results attached:
1) COc1cc(CCc2cccc3nc(N)nc(N)c23)cc(OC)c1OC = 7.14
2) COc1ccc(OC)c(CCc2cccc3nc(N)nc(N)c23)c1 = 7.39

# get_value(readout='pKi', item= `Nc1nc(N)c2c(CCc3ccccc3)cccc2n1` )
7.64
